Target: human PPARγ (hPPARγ) (Homo sapiens)
Construct: expressed in transfected cells; host or cells: HepG2 (human hepatoblastoma)
Sequence (P37231 238-503 limits assumed): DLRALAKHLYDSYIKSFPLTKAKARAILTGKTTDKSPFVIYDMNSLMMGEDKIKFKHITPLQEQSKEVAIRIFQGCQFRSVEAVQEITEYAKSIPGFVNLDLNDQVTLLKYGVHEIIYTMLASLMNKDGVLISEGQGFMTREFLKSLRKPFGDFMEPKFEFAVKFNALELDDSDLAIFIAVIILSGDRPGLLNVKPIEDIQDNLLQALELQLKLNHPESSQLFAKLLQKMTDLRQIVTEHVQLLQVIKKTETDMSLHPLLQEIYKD
Test: cell-based
Type: cell-based
Details: HepG2, percentage of the maximum fold induction with rosiglitazone (100%)
Description: For this purpose, GAL4-PPAR chimeric receptors were expressed in transiently transfected HepG2 cells according to a previously reported procedure. […] Maximum obtained fold induction with the reference agonist was defined as 100%. […]
API: label(entry) gives TRUE if the entry's Emax is strictly smaller than 20%; on equality or larger values it gives FALSE.

Is Emax strictly under 20% for the entry CCC(C)(Oc1ccc(Br)cc1)C(=O)O (stereo not drawn) ?
TRUE

A record lists CCC(C)(Oc1ccc(-c2ccccc2)cc1)C(=O)O (stereo not drawn) . Is its Emax below 20%?
FALSE

Bench note: check whether CC(Oc1ccc(Cl)cc1)(C(=O)O)c1ccccc1 (stereo not drawn) shows Emax below 20%
FALSE

Answer whether the compound CC(Cc1ccccc1)(Sc1ccc(Cl)cc1)C(=O)O (stereo not drawn) has Emax strictly less than 20%
TRUE

# TODO verify Emax < 20% strictly for this compound: CC(C)(Oc1ccc(-c2ccccc2)cc1)C(=O)O
TRUE

Consider CC(Oc1ccc(-c2ccccc2)cc1)(C(=O)O)c1ccccc1 (racemic) . Does its Emax lie strictly below 20%?
FALSE

Does the reported Emax of the following compound sit strictly below 20%? CC(Oc1ccc(Br)cc1)(C(=O)O)c1ccccc1 (racemic)
FALSE

Report whether reported Emax is lower than 20% (strictly) for CC(Cc1ccccc1)(Oc1ccc(-c2ccccc2)cc1)C(=O)O (stereo not drawn)
FALSE

Could you please tell me whether Emax recorded for CC(Cc1ccccc1)(Oc1ccc(Cl)cc1)C(=O)O (stereo not drawn) is less than 20%?
FALSE
